Task for the reader: assign each of the following compounds its reported IC20.
Test system: contraction by leukotriene D4
assayRemarks: Inhibition of leukotriene D4-induced contraction of isolated guinea pig trachea (Test Example 3)
Assay type: cell-based
testSettings: Cavia porcellus; guinea pig trachea contracted with 1x10^-8M leukotriene D4; concentration for 20% inhibition
One number for each entry, in nM.

[[record]]
compound = "CCCC(F)(F)C(=O)CCC[C@H]1[C@H](O)CC(=O)[C@@H]1C/C=C\\CCCC(=O)OC [compound 1]"
numericreadout = 160

[[record]]
compound = "CCCC(F)(F)C(=O)CCC[C@H]1[C@H](O)CC(=O)[C@@H]1C/C=C\\CCCC(=O)OC(C)C [compound 3]"
numericreadout = 180

[[record]]
compound = "CCCC(F)(F)C(=O)CCC[C@H]1[C@H](O)CC(=O)[C@@H]1C/C=C\\CCCC(=O)O [compound 2]"
numericreadout = 300

[[record]]
compound = "CCCC(F)(F)C(=O)CCC[C@@H]1[C@@H](C/C=C\\CCCC(=O)OC)[C@@H](O)C[C@H]1O [compound 7]"
numericreadout = 4000


Next compound, please.
What IC20 value was documented for this compound, CCCC(F)(F)C(=O)CCC[C@H]1[C@H](C)CC(=O)[C@@H]1C/C=C\CCCC(=O)OC [compound 4] ?
7000

* * *

Tested on: contraction by histamine
assayRemarks: Inhibition of histamine-induced contraction of isolated guinea pig trachea (Test Example 1)
Type: cell-based
testSettings: guinea pig trachea contracted with 5.4x10^-4M histamine; concentration for 50% inhibition; cumulative addition every 6 minutes
Method: A guinea pig was sacrificed by knocking at the occipital region and then bleeding from the femoral artery. […] After resting for 60 to 90 minutes for stabilization, the sample was contracted with 5.4x10^-4M histamine and when the construction reached the constant value, the test compounds were accumulately added every 6 minutes, and the change in tension was recorded on a recorder (T-626DS, Nippon Denshi Kagaku, Japan) through an isometric transducer (1T-1, LABOX, Fukukensha, Japan). […]
quantityName: pIC50
Numbers only, as −log10 of the molar value.

What pIC50 value was documented for this molecule, CCCC(F)(F)C(=O)CCCC1C(=O)CC(O)C1C/C=C\CCCC(=O)OC (stereo not shown) ?
6.46

* * *

System: contraction by leukotriene D4
assayRemarks: Inhibition of leukotriene D4-induced contraction of isolated guinea pig trachea (Test Example 3)
Type: cell-based
testSettings: guinea pig trachea contracted with 1x10^-8M leukotriene D4; concentration for 50% inhibition
quantityName: IC50 (nM)
One number for each entry, in nM.

What IC50 value was documented for this molecule, CCCC(F)(F)C(=O)CCCC1C(=O)CC(O)C1C/C=C\CCCC(=O)OC (stereo not shown) ?
120
